Molecular target: T1, BCMA on cells (293T cells transfected with BCMA; H929, MM.1S and U266 cell lines expressing BCMA) (human, UniProt Q02223 1-184)
T1 construct: H929, MM.1S and U266 carry the native protein; also called B-cell Maturation Antigen; TNFRSF17
T1 sequence: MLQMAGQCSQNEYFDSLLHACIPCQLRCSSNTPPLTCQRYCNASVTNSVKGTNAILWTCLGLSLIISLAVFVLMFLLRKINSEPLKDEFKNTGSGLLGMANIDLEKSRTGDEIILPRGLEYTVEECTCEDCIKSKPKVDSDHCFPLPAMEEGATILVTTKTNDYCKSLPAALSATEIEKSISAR
Assay: flow cytometry, H929 cells; note: test concentration or dose not given here
ASSAY_METRIC: Positive (%)
Quick note: give the figure in %, leave out the unit.

The binder listed as SCT-Aa10(h/h) (antibody, V domains shown, Full IgG format, chimeric: human IgG1 heavy chain constant region, human kappa light chain constant region) VH: QVQLQQSDAELVKPGASVKISCKVSGYTFTDHTIHWMKQRPEQGLEWIGYIFPRDGNTKYNEKFKGKATMTADKSSSTAYMQLNSLTSEDSAVYFCARWDYEGFDCWGQGTTLTVSS VL: DIVMTQSPATLSVTPGDRVSLSCRASQSISDYLHWYQQKSHESPRLLIKYASQSISGIPSRFSGSGSGSDFTLSINSVEPEDVGVYFCQNGHSFPPTFGSGTKLEIK has a reported Positive (%) of 85.5

The binder listed as SCT-Aa17(h/h) (antibody, V domains shown, Full IgG format, chimeric: human IgG1 heavy chain constant region, human kappa light chain constant region) VH: EVQLQQSGPELVKPGASVKMSCKASGYTFTSYVMDWVKQKPGQGLEWIGYINPYNDGTKYNEKFKGKATLTSDKSSSTVYMELSSLTSEDSAVYHCARSDYDYGYAMDYWGQGTSVTVSS VL: DIQMTQSPASLSLSVGETVTITCRASENIYSNLAWYQQKQGNSPQLLVYSATHLADGVPSRFSGSGSGTQYSLKINSLQSEDFGCYYCQHFWGPPWTFGGGTKLEIK has a reported Positive (%) of 75

The binder listed as SCT-Aa05(m/m) (antibody, V domains shown, Full IgG format: mouse IgG1 heavy chain constant region, mouse kappa light chain constant region) VH: EVKLLQSGGGLVQPGGSLKLSCAASGIDFSRYWMSWVRRAPGKGLEWIGEINPDSSTINYAPSLKDKFIISRDNAKNTLYLQMSKVRSEDTGLYYCASLYYDYEREYGMDYWGQGTSVTVSS VL: DIVMTQSQKFMSTSVGDRVSVTCKASQNVGTNVAWYQQKPGQSPKALIYSASYRFSGVPDRFTGSGSGTDFTLTISNVQSEDLAEYFCQQYNSYPYTFGGGTKLEIK has a reported Positive (%) of 99.9
